Assay: toxicity towards MDBKF5D2 host cells (MTS)
Details: bovine, mdbkf5d2 cells, Cytotoxicity (percent toxicity), 1.0 μM
List of cytotoxicity at 48 h, 1 µM values.
quantity_measured: cytotoxicity at 48 h, 1 µM (%)

compound	quantity_measured	reported_result
CCC(C)(NC(=O)c1cc(Cl)c(N)c(Cl)c1)C(=O)CCl (centres unmarked)	cytotoxicity at 48 h, 1 µM	0
CCC(C)(NC(=O)c1cc(F)c(F)c(F)c1)C(=O)CCl (centres unmarked)	cytotoxicity at 48 h, 1 µM	0
CCC(C)(NC(=O)c1cc(Cl)c(F)c(Cl)c1)C(=O)CCl (centres unmarked)	cytotoxicity at 48 h, 1 µM	0
CCC(C)(NC(=O)c1cc(F)cc(F)c1)C(=O)CCl (centres unmarked)	cytotoxicity at 48 h, 1 µM	2.5
CCC(C)(NC(=O)c1cc(Br)c(N)c(Br)c1)C(=O)CCl (centres unmarked)	cytotoxicity at 48 h, 1 µM	6.1
